Taken from patent US12030878B2.

# assayedSystem: human TLR9 (Homo sapiens, UniProt Q9NR96)
# Sequence (Q9NR96 26-1032): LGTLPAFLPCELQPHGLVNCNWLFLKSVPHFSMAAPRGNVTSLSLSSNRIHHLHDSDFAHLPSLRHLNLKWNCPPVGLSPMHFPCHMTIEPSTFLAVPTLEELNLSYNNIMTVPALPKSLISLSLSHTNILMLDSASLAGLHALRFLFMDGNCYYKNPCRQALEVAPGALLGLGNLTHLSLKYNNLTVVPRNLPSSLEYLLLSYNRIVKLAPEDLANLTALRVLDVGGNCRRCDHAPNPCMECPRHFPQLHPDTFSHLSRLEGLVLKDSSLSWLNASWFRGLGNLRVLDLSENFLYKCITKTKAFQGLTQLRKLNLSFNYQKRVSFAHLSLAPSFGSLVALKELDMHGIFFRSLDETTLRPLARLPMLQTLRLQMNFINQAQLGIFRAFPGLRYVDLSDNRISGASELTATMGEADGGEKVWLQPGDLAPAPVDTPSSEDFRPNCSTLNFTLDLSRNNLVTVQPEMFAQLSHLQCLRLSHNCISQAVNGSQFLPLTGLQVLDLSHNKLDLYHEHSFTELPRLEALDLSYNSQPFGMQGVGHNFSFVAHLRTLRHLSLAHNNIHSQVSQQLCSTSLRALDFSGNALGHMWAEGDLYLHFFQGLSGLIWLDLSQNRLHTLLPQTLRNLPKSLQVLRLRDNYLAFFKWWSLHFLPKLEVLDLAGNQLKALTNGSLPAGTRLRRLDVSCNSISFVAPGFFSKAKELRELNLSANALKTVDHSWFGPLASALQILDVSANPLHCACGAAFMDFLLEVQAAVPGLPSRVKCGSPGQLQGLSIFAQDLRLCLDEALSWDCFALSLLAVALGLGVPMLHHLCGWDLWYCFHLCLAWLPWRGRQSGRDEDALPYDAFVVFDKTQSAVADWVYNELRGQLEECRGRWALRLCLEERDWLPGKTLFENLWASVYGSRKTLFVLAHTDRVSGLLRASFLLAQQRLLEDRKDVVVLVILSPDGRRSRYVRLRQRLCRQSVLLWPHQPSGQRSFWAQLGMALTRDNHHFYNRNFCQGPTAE
# experimentalProtocol: TLR9 inhibition reporter assay (HEK-Blue SEAP)
# particulars: HEK-Blue cells overexpressing human TLR9, stimulated with ODN2006 5 nM, 22 hour incubation
measurementLabel: IC50 (nM)
Unit nM implied. Number only.

IC50 measured on COCCN1CCC(COc2ccc3[nH]c(-c4cc(C)c(=O)n(C)c4)c(C(C)C)c3c2)CC1 [Example 74] = 29200

IC50 measured on COc1ccc(-c2[nH]c3ccc(OCC(=O)NCC4(O)CCN(C)CC4)cc3c2C(C)C)cc1OC [Example 133] = 861

IC50 measured on Cc1cc(-c2[nH]c3ccc(OCCN4CCOCC4)cc3c2C(C)C)cn2ncnc12 [Example 5] = 37300

IC50 measured on Cc1cc(-c2[nH]c3ccc(OCC(=O)NC4CCC5CNCC54)cc3c2C(C)C)ccn1 (centres unmarked) [Example 142] = 383

IC50 measured on Cc1c(-c2[nH]c3ccc(OC4CCN(C(=O)CN(C)C)CC4)cc3c2C(C)C)cn2cnnc2c1C [Example 105] = 1560

IC50 measured on CCc1c(-c2ccnc(C)c2)[nH]c2ccc(OCC3CCN(C)CC3)cc12 [Example 183] = 512

IC50 measured on Cc1cc(-c2[nH]c3ccc(OC4CCN(C(C)C)CC4)cc3c2C(C)C)cc(C)n1 [Example 31] = 530

IC50 measured on COCCN1CCC(COc2ccc3[nH]c(-c4ccnc(C)c4)c(C(C)C)c3c2)C1 (centres unmarked) [Example 194] = 1460
